Data credit: the Kinase Knowledgebase extract (Sharma et al. 2016)

biological target: PIK3CA (human) (UniProt P42336); experiment: Cell-Based Assay; conditions: rat-1
Sequence (P42336 whole entry, looked up): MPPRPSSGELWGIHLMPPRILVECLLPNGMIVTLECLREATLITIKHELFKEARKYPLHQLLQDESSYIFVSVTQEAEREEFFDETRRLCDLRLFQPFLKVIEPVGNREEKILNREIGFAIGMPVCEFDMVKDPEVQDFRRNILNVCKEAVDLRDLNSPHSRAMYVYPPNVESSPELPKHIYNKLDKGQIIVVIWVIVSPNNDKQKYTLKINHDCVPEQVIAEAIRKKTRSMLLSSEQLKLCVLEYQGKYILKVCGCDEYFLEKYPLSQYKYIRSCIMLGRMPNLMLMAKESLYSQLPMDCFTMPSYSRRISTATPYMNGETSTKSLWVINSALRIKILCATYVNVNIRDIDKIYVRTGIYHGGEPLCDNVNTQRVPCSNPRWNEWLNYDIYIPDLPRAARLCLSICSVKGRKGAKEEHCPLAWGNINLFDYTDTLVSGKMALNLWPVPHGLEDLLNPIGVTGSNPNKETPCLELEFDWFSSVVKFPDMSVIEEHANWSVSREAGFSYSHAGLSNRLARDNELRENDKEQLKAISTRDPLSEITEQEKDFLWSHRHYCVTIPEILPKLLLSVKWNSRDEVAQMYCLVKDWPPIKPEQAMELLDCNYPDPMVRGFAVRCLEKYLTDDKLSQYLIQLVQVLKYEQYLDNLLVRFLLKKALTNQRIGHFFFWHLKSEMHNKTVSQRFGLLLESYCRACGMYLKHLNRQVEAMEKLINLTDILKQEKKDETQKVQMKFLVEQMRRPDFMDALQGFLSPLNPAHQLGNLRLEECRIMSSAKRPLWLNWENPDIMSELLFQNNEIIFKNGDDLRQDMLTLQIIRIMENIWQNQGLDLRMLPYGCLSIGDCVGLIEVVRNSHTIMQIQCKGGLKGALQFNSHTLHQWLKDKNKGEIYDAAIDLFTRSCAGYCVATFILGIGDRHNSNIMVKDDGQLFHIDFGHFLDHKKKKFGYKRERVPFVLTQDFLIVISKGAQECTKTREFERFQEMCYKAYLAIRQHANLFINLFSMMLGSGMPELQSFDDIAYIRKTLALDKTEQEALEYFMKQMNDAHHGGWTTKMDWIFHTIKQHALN
Each entry below lists one item and its recorded pIC50 value.
Here pIC50 is given on a logarithmic scale as minus log10 of the concentration in mol/L.

Cc1nc(N)nc(N2C[C@@H](O)C[C@H]2c2nc3cccc(Cl)c3c(=O)n2-c2cccnc2)c1C#N; 5.20
Cc1nc(N)nc(N2C[C@@H](O)C[C@H]2c2nc3cccc(C(F)(F)F)c3c(=O)n2-c2cc(F)cc(F)c2)c1C#N; 5.05
CO[C@H]1C[C@@H](c2nc3cccc(Cl)c3c(=O)n2-c2ccccc2)N(c2nc(N)nc(C)c2C#N)C1; 5.88
Cc1nc(N)nc(N2CCC[C@H]2c2nc3cccc(C(F)(F)F)c3c(=O)n2-c2cccnc2)c1C#N; 5.42
CC1(n2c([C@@H]3CCCN3c3ncnc(N)c3C#N)nc3cccc(Cl)c3c2=O)CC1; 5.37
CN(C)n1c([C@@H]2CCCN2c2ncnc(N)c2C#N)nc2cccc(Cl)c2c1=O; 5.45

# ---- query molecule ----
query: pIC50 lookup needed for Cc1nc(N)nc(N2C[C@@H](O)C[C@H]2c2nc3cccc(C)c3c(=O)n2-c2ccccc2)c1C#N , thanks.
result: 6.22

---

molecular target: PIK3CD (Human); experiment: Cell-Based Assay; conditions: rat-1
measurement-name: pIC50
Here pIC50 is given on a logarithmic scale as minus log10 of the concentration in mol/L.

Example entries and their recorded answers appear below.
Cc1nc(N)nc(N2CCC[C@H]2c2nc3cccc(C(F)(F)F)c3c(=O)n2-c2cncc(F)c2)c1C#N; 7.25
Cc1ccccc1-n1c([C@@H]2CCON2c2ncnc3[nH]cnc23)nc2cccc(Cl)c2c1=O; 5.61
CO[C@H]1C[C@@H](c2nc3cccc(C(F)(F)F)c3c(=O)n2-c2ccccc2)N(c2nc(N)nc(C)c2C#N)C1; 6.74
Nc1nc(N2CCC[C@H]2c2nc3cccc(Cl)c3c(=O)n2C2CC2)c2nc[nH]c2n1; 6.46

query: pIC50 lookup needed for N#Cc1c(C(F)F)nc(N)nc1N1C[C@@H](O)C[C@H]1c1nc2cccc(C(F)(F)F)c2c(=O)n1-c1ccccc1 , thanks.
result: 6.29

query: Another compound to check: Cn1cnc2c(N3CCC[C@H]3c3nc4cccc(Cl)c4c(=O)n3N3CCOCC3)nc(N)nc21
result: 6.32

query: Another compound to check: N#Cc1c(N)ncnc1N1C[C@@H](F)C[C@H]1c1nc2cccc(C(F)(F)F)c2c(=O)n1-c1ccccc1
result: 8.00

query: Another compound to check: N#Cc1c(N)ncnc1N1CCC[C@H]1c1nc2cccc(Cl)c2c(=O)n1N1CCOCC1
result: 7.70

---

Each entry below lists one item and its recorded pIC50 value.
molecular target: PIK3CA (human) (UniProt P42336); test: Cell-Based Assay; conditions: rat-1
Here pIC50 is given on a logarithmic scale as minus log10 of the concentration in mol/L.

Example entries and their recorded answers appear below.
O=c1c2c(Cl)cccc2nc([C@@H]2CCCN2c2ncnn3ccnc23)n1-c1ccccc1; 5.29
Nc1nc(N2C[C@@H](F)C[C@H]2c2nc3cccc(C(F)(F)F)c3c(=O)n2-c2cccc(F)c2)c2nc[nH]c2n1; 5.08
Cc1nc(N)nc(N2C[C@@H](O)C[C@H]2c2nc3cccc(F)c3c(=O)n2-c2ccccc2)c1C#N; 5.18

query: pIC50 lookup needed for N#Cc1c(N)ncnc1N1CCC[C@H]1c1nc2cccc(C(F)(F)F)c2c(=O)n1-c1cccnc1 , thanks.
result: 5.23

query: Another compound to check: N#Cc1c(N)ncnc1N1C[C@@H](F)C[C@H]1c1nc2cccc(C(F)(F)F)c2c(=O)n1-c1ccccc1
result: 6.12
